system: PC-3 prostate; assay: NCI-60 one-dose screen, 48 h (100 = growth as untreated, 0 = no growth, -100 = all killed); conditions: 10 µM
The panel holds about 83,000 compounds, 20% with a hit somewhere; the sample as a whole holds those more often.
Consider the following compounds and their measured growth readings.

{"columns": ["compound", "unit-abbreviation", "growth"],
 "data": [
  ["CCOC(=O)c1cc(C(=O)c2cc(OC)c(OC)c(OC)c2)n2c1ccc1c3cccnc3ccc12", "%", 63.9],
  ["Cc1cc(SC#N)cc(C(C)(C)C)c1O", "%", 66.8],
  ["COc1ccc2cc(-c3nc4ccccc4s3)c(Cl)nc2c1OC", "%", 92.6],
  ["CCCc1cn(CC(=O)Nc2nc3ccccc3s2)nn1", "%", 96.3],
  ["CC(=O)OC1C=CC(OC(C)=O)O1 (configuration not stated)", "%", 92.7],
  ["O=C(Nc1ccc2c(O)cc(S(=O)(=O)O)cc2c1)c1ccc([N+](=O)[O-])cc1", "%", 83.1],
  ["Cc1ccc(-n2nnnc2N)c(C)c1", "%", 105],
  ["C=C1CCC2(C#N)[C@H]3[C@H](CC[C@@H]2C)[C@@H](C)C[C@@H](CC(C)(C)NC(=O)CN2CCC2=O)[C@H]13 (some centres not stated)", "%", 17.8],
  ["Cc1cc(Br)nnc1Br", "%", 110],
  ["O=C(c1ccccc1)N(C(=O)c1ccccc1)N1CCCC1", "%", 88.4],
  ["COc1ccc(-c2onc(N)c2-c2cc(OC)c3c(c2)OCO3)cc1", "%", 61.4],
  ["COc1ccc(-c2cc(-c3ccc(Cl)cc3)nc(SCCCC(=O)NO)n2)cc1", "%", 0.504],
  ["O=C(Nc1ccc(NS(=O)(=O)c2ccc(F)cc2)cc1)C12CC3CC(CC(C3)C1)C2", "%", 78.8],
  ["COc1cc(C)ccc1Oc1nc(Nc2ccc(N3CCOCC3)cc2)ncc1NC(=O)Nc1cc(C(F)(F)F)cc(C(F)(F)F)c1", "%", 38.1],
  ["Cc1cc(Cl)ccc1Nc1nc(C(F)(F)F)ccc1C(=O)N/N=C/c1c(Cl)cccc1Cl", "%", -13.7],
  ["CC(C)(C)c1ccc(S(=O)(=O)Oc2ccc(NC(=O)C3CCCCC3)cc2)cc1", "%", 22.3],
  ["CC1(C)N=C(N)N=C(N)N1c1cccc(C#N)c1", "%", 43.1],
  ["COC(=O)C1(O)NC(=C(C#N)C#N)C(C#N)=C1C(=O)c1ccc(OC)c(OC)c1 (configuration not stated)", "%", 76.9],
  ["O=C(CCCSc1nc(-c2ccccc2)cc(-c2ccc(Cl)cc2)n1)NO", "%", 20.6],
  ["CCCCCCCCCCOC(c1ccccc1)c1ccccc1", "%", 83.5],
  ["NS(=O)(=O)Oc1ccc(NC(=O)C2CCCCCC2)cc1", "%", 96.5],
  ["CNC(=O)c1cc(Oc2ccc3c(c2)sc2nc(-c4ccc(NC(=O)Nc5ccc(Cl)c(C(F)(F)F)c5)cc4)cn23)ccn1", "%", 64]
]}

###

// reported growth per item
tested on: UACC-62 melanoma; assay: NCI-60 one-dose screen, 48 h (100 = growth as untreated, 0 = no growth, -100 = all killed); details: 10 µM
This is part of a sample that, as a whole, favours compounds with a hit. Of some 83,000 tested, about 20% had one in any assay.

{"columns": ["structure-string", "growth (%)"],
 "data": [
  ["Nc1cc(-c2ccc(Cl)cc2)nn1-c1nc2ccccc2nc1Cc1ccccc1", 87.8],
  ["O=C(CCCCNC(=O)c1nc(-c2ccccc2)n(-c2ccccc2)n1)NO", 37.5],
  ["c1ccc(CSc2ncccc2-c2nnc(SCCN3CCOCC3)o2)cc1", 113],
  ["CC(C)(C)OC(=O)N1CCc2c(sc3ncnc(N/N=C/c4ccccc4Br)c23)C1", 60.1],
  ["Cc1nc2n(c(=O)c1CCN1CCC(c3noc4cc(F)ccc34)CC1)CCC[C@@H]2O", 98.2],
  ["Cc1ccc(-n2nnnc2N)c(C)c1", 96.4]
]}

###

test system: NCI-H522 lung; test: NCI-60 one-dose screen, 48 h; details: 10 µM
Compounds without any hit were thinned out: in the full panel of roughly 83,000, 20% have a hit. Activity calls are given as the source filed them. Rule for the calls: active = growth percent below 10; inactive = the rest.
Outcomes: t = active, f = inactive

{"columns": ["compound", "category"],
 "data": [
  ["CCC(=O)OC1CCC2C3CCC(=O)OC3C(C)(CCC(=O)O)CC12C (stereo unspecified)", "f"],
  ["CCN(CC)CCOc1cccc2c1C(=O)c1ccccc1C2=O", "f"],
  ["COc1ccc(/C=C2\\CCCC3=C2NC(N)=NC3c2ccc(OC)cc2)cc1 (stereo unspecified)", "f"],
  ["O=C1C=C(Nc2cccc(Br)c2)c2ccccc2C1=O", "f"],
  ["COC(=O)c1c[nH]c2cc(OC(C)C)c(OC(C)C)cc2c1=O", "f"],
  ["O=C1c2ccccc2C(=O)N1CCCCNc1ccccc1", "f"],
  ["COc1cc2c(Nc3ccc(-c4ccc(N)cc4)cc3)ncnc2c(OC)c1OC", "f"],
  ["CCOC(=O)c1cc(C(=O)c2cc(OC)cc(OC)c2)n2ncc3ccccc3c12", "t"],
  ["COc1cc2cc(Oc3ccc(NC(=O)c4ccc(Cl)c(C(F)(F)F)c4)cc3)c(C)nc2cc1OC", "f"],
  ["COc1cc(/C=C2\\CCCC3=C2NC(N)=NC3c2cc(OC)c(OC)c(OC)c2)cc(OC)c1OC (stereo unspecified)", "t"],
  ["COc1cc(C2CC(c3cc(Cl)c(C)cc3O)=NN2c2ccc(S(N)(=O)=O)cc2)cc(OC)c1OC (stereo unspecified)", "t"],
  ["Cc1ccc(NCCN(C)CC(C)O)c2c(=O)c3ccccc3sc12 (stereo unspecified)", "f"],
  ["Nc1ccn(Cc2nnc(CCC(=O)c3nc4ccccc4[nH]3)o2)c(=O)n1", "f"],
  ["Cc1ccc(NC(=S)NNC(=S)Nc2ccc(C)cc2)cc1", "f"],
  ["COc1ccc2c(c1)C(=O)/C(=C/c1cccc(OCC(=O)c3ccc([N+](=O)[O-])cc3)c1)CO2", "t"],
  ["CC(=O)Oc1cc(OC(C)=O)c2ccccc2c1OC(C)=O", "f"],
  ["N#Cc1cnn(C(=O)c2nn(-c3ccc(Cl)cc3)cc2O)c1N", "t"],
  ["C=CCn1c(SCC(=O)Nc2ccc(C(=O)/C=C/c3ccc(OC)cc3)cc2)nnc1-c1ccc(OC)c(OC)c1", "f"],
  ["O=[N+]([O-])c1ccc(NCSc2ccc(Cl)cc2)cc1", "f"],
  ["CC(=O)[C@H]1CC[C@]2(C)[C@@H]1CC[C@@H]1[C@@]3(C)CC(CCC#N)(CCC#N)C(=O)C(C)(C)[C@@H]3CC[C@]12C", "f"],
  ["CC(C)C1=C(O)C2=C(C(=O)C1=O)[C@@]1(C)CCCC(C)(C)[C@@H]1CC2", "f"],
  ["Nc1ncnc2c1ncn2C1(CO)OCC(O)C(O)C1O (stereo unspecified)", "f"],
  ["Cc1c2cnccc2c(C)c2c1oc1ccccc12", "f"],
  ["CCN(CC)CCOc1ccc2c(c1O)C(=O)c1ccccc1C2=O", "f"],
  ["S=C(SSC(=S)N(c1ccccc1)c1ccccc1)N(c1ccccc1)c1ccccc1", "f"],
  ["Nc1ccccc1NC(=O)c1ccc(CCCC(=O)Nc2ccc(C3CC3N)cc2)cc1 (stereo unspecified)", "t"],
  ["CCCc1cn(CC(=O)Nc2nc3ccccc3s2)nn1", "f"],
  ["Clc1nc2ccc(Br)cc2cc1-c1nc2ccccc2[nH]1", "f"],
  ["OCC1OC(n2cnc3c(NCc4ccco4)ncnc32)C(O)C1O (stereo unspecified)", "f"],
  ["OCC1OC2C(NC(=S)N2c2ccccc2)C(O)C1O (stereo unspecified)", "f"],
  ["CCOC(=O)c1cc(C(=O)c2ccc(OC)c(OC)c2)n2c1ccc1ccc3cccnc3c12", "t"],
  ["O=C1c2ccccc2C(=O)c2c1ccc(C(Br)Br)c2[N+](=O)[O-]", "f"],
  ["COc1cc(-c2nn(-c3cccc(NC(=O)NCCNC(=O)c4ccccc4)c3)cc2-c2ccncc2)ccc1Cl", "t"],
  ["COc1cc(-c2nn(-c3cccc(NC(=O)NCCNC(=O)c4cccc(C(F)(F)F)c4)c3)cc2-c2ccncc2)ccc1Cl", "f"],
  ["O=C(O)c1cc([N+](=O)[O-])ccc1Oc1ccccc1", "f"],
  ["CCN(CC)CCNc1ccc(C)c2sc3cc(Cl)ccc3c(=O)c12", "f"],
  ["Cc1ccc(C(SCC(N)C(=O)O)(c2ccc(C)cc2)c2ccc(C)cc2)cc1 (stereo unspecified)", "t"],
  ["O=C(NCCCNS(=O)(=O)c1ccc(Cl)cc1)Nc1ccc(-n2cc(-c3ccncc3)c(-c3ccc(Cl)c(O)c3)n2)cc1", "f"],
  ["CCN(CC)CCCC(Nc1c2ccc(Cl)cc2nc2ccc(OC)cc12)c1ccc(F)cc1 (stereo unspecified)", "t"],
  ["COc1ccc(/C=C/C(=O)C(=O)/C=C/c2ccc(OC)c(OC)c2)cc1OC", "f"],
  ["CN(C)CCCSc1ccccc1NC1=C(Cl)C(=O)C(Nc2ccccc2SCCCN(C)C)=C(Cl)C1=O", "t"]
]}
